assay.text: Cytotoxicity against human HeLa cells assessed as decrease in cell viability
measurement.name: CC50

Query: I have this molecule here, COc1cnc(O[C@@H]2C[C@@H](C(=O)N[C@]3(C(=O)NS(=O)(=O)C4CC4)C[C@H]3C3CC3)N(C(=O)[C@@H](NC(=O)O[C@H](C)C(F)(F)F)C3CCCCC3)C2)c2cc(Cl)ccc12 , and I need its recorded CC50.
Response: 8 to 14 µM

###

assay.text: Half life in human liver microsomes
Type: ADME
# note: exactly 100 min is not below, so it is NOT MET; use MET for half-life strictly under it

Reference set, count: 2
{"compound.structure.string": "COc1cnc(O[C@@H]2C[C@@H](C(=O)N[C@]3(C(=O)NS(=O)(=O)C4CC4)C[C@H]3C3CC3)N(C(=O)[C@@H](NC(=O)OC3CCC3)C(C)(C)C)C2)c2cc(Cl)ccc12", "class.label": "MET"}
{"compound.structure.string": "COc1cnc(O[C@@H]2C[C@@H](C(=O)N[C@]3(C(=O)NS(=O)(=O)C4CC4)C[C@H]3C3CC3)N(C(=O)[C@@H](NC(=O)OC3CCCC3)C(C)(C)C)C2)c2cc(Cl)ccc12", "class.label": "MET"}

Query: Does this compound meet the criterion half-life < 100 min? COc1cnc(O[C@@H]2C[C@@H](C(=O)N[C@]3(C(=O)NS(=O)(=O)C4CC4)C[C@H]3C3CC3)N(C(=O)[C@@H](NC(=O)O[C@H](C)C(F)(F)F)C(C)(C)C)C2)c2cc(Cl)cc(Cl)c12
Response: NOT MET

Query: Do the same for C=C[C@@H]1C[C@]1(NC(=O)[C@@H]1C[C@@H](Oc2nccc3cc(OC)ccc23)CN1C(=O)[C@@H](NC(=O)OC(C)(C)C)C(C)(C)C)C(=O)NS(=O)(=O)C1CC1 please
Response: MET

###

// reported pIC50 for each item listed
assay.text: Inhibition of recombinant full length HCV genotype 6a HK-6A NS3/4A protease preincubated for 30 mins followed by substrate addition measured by FRET assay
Design: species or system Hepatitis C virus subtype 6a
pIC50 (log units): -log10 of the concentration in mol/L.

Query: Can you look up the measured pIC50 of COc1cnc(O[C@@H]2C[C@@H](C(=O)N[C@]3(C(=O)NS(=O)(=O)C4CC4)C[C@H]3C3CC3)N(C(=O)[C@@H](NC(=O)O[C@H](C)C(F)(F)F)C3CCCCC3)C2)c2cc(Cl)ccc12 for me?
Response: 8.47

Query: Ok, now C=C[C@@H]1C[C@]1(NC(=O)[C@@H]1C[C@@H](Oc2ncc(OC)c3ccc(Cl)cc23)CN1C(=O)[C@@H](NC(=O)OC(C)(C)C)C(C)(C)C)C(=O)NS(=O)(=O)C1CC1
Response: 8.89

###

assay.text: AUC in cannulated Sprague-Dawley rat plasma at 15 mg/kg administered via oral gavage measured up to 24 hrs post dose by LC/MS/MS analysis
Format: ADME, organism-based
Parameters: dose 15 mg/kg, time < 24 hr, route oral
Here, each record is paired with measured AUC at 24 h data.
The answer is to be given in µM·h; state only the numeric part.

// below: answered compounds
{"compound.structure.string": "COc1cnc(O[C@@H]2C[C@@H](C(=O)N[C@]3(C(=O)NS(=O)(=O)C4CC4)C[C@H]3C3CC3)N(C(=O)[C@@H](NC(=O)O[C@H](C)C(F)(F)F)C(C)(C)C)C2)c2cc(Cl)cc(Cl)c12", "AUC at 24 h [µM·h]": 6.3}
{"compound.structure.string": "COc1cnc(O[C@@H]2C[C@@H](C(=O)N[C@]3(C(=O)NS(=O)(=O)C4CC4)C[C@H]3C3CC3)N(C(=O)[C@@H](NC(=O)O[C@H](C)C(F)(F)F)C3CCCCC3)C2)c2cc(Cl)ccc12", "AUC at 24 h [µM·h]": 21.1}
{"compound.structure.string": "COc1cnc(O[C@@H]2C[C@@H](C(=O)N[C@]3(C(=O)NS(=O)(=O)C4CC4)C[C@H]3C3CC3)N(C(=O)[C@@H](NC(=O)O[C@H](C)C(F)(F)F)C3CCCC3)C2)c2cc(Cl)ccc12", "AUC at 24 h [µM·h]": 15}
{"compound.structure.string": "COc1cnc(O[C@@H]2C[C@@H](C(=O)N[C@]3(C(=O)NS(=O)(=O)C4CC4)C[C@H]3C3CC3)N(C(=O)[C@@H](NC(=O)O[C@H](C)C(F)(F)F)C(C)(C)C)C2)c2cccc(Cl)c12", "AUC at 24 h [µM·h]": 8.6}
{"compound.structure.string": "COc1cnc(O[C@@H]2C[C@@H](C(=O)N[C@]3(C(=O)NS(=O)(=O)C4CC4)C[C@H]3C3CC3)N(C(=O)[C@@H](NC(=O)OC(C)(C)C)C(C)(C)C)C2)c2cc(Cl)ccc12", "AUC at 24 h [µM·h]": 19.6}

Query: May I ask what AUC at 24 h has been recorded for CC[C@@H]1C[C@]1(NC(=O)[C@@H]1C[C@@H](Oc2ncc(OC)c3ccc(Cl)cc23)CN1C(=O)[C@@H](NC(=O)OC(C)(C)C)C(C)(C)C)C(=O)NS(=O)(=O)C1CC1 ?
Response: 6.9

Query: Now consider C=C[C@@H]1C[C@]1(NC(=O)[C@@H]1C[C@@H](Oc2nccc3cc(OC)ccc23)CN1C(=O)[C@@H](NC(=O)OC(C)(C)C)C(C)(C)C)C(=O)NS(=O)(=O)C1CC1 .
Response: 14.1

Query: How about this compound: COc1cnc(O[C@@H]2C[C@@H](C(=O)N[C@]3(C(=O)NS(=O)(=O)C4CC4)C[C@H]3C3CC3)N(C(=O)[C@@H](NC(=O)O[C@H](C)C(F)(F)F)C(C)(C)C)C2)c2cc(Cl)ccc12
Response: 13.8

Query: Try this compound too: COc1cnc(O[C@@H]2C[C@@H](C(=O)N[C@]3(C(=O)NS(=O)(=O)C4CC4)C[C@H]3C3CC3)N(C(=O)[C@@H](NC(=O)OC(C)(C)C(F)(F)F)C(C)(C)C)C2)c2cc(Cl)ccc12
Response: 19.1

Query: Would you kindly repeat that for COc1cnc(O[C@@H]2C[C@@H](C(=O)N[C@]3(C(=O)NS(=O)(=O)C4CC4)C[C@H]3C3CC3)N(C(=O)[C@@H](NC(=O)O[C@H](C)C(F)(F)F)C(C)(C)C)C2)c2ccc(Cl)cc12 ?
Response: 7.9

###

assay.text: Drug uptake in cannulated Sprague-Dawley rat liver at 15 mg/kg administered via oral gavage measured at 24 hrs post dose by LC/MS/MS analysis
Format: ADME, organism-based
assay.context: read-out: Drug uptake
Listing of entries alongside the reported concentration at 24 h.
State the answer as a number, implicitly in µM.

Query: Value lookup for concentration at 24 h; key = COc1ccc2c(O[C@@H]3C[C@@H](C(=O)N[C@]4(C(=O)NS(=O)(=O)C5CC5)C[C@H]4C4CC4)N(C(=O)[C@@H](NC(=O)O[C@H](C)C(F)(F)F)C(C)(C)C)C3)nc(OC)cc2c1
Response: 19.2

Query: Same question for COc1cnc(O[C@@H]2C[C@@H](C(=O)N[C@]3(C(=O)NS(=O)(=O)C4CC4)C[C@H]3C3CC3)N(C(=O)[C@@H](NC(=O)O[C@H](C)C(F)(F)F)C(C)(C)C)C2)c2cc(Cl)cc(Cl)c12 please.
Response: 24

Query: Same for COc1cnc(O[C@@H]2C[C@@H](C(=O)N[C@]3(C(=O)NS(=O)(=O)C4CC4)C[C@H]3C3CC3)N(C(=O)[C@@H](NC(=O)OC(C)(C)C)C(C)(C)C)C2)c2cc(Cl)ccc12
Response: 35.7

###

assay.text: Cardiotoxicity in rabbit heart assessed as change in sinoatrial node recovery time at 10 uM perfused for 20 mins measured for 1 min by electrophysiology method relative to control
Assay type: toxicity, tissue-based, Oryctolagus cuniculus
measurement.name: Activity (%)
Your answer should be a plain number; it is taken to be in %.

The examples below pair each entry with its known result.
{"compound.structure.string": "COc1cnc(O[C@@H]2C[C@@H](C(=O)N[C@]3(C(=O)NS(=O)(=O)C4CC4)C[C@H]3C3CC3)N(C(=O)[C@@H](NC(=O)OC(C)(C)C)C(C)(C)C)C2)c2cc(Cl)ccc12", "measurement.name": "Activity", "unit.of.measure": "%", "result.value": 18.5}
{"compound.structure.string": "COc1cnc(O[C@@H]2C[C@@H](C(=O)N[C@]3(C(=O)NS(=O)(=O)C4CC4)C[C@H]3C3CC3)N(C(=O)[C@@H](NC(=O)OC(C)(C)C(F)(F)F)C(C)(C)C)C2)c2cc(Cl)ccc12", "measurement.name": "Activity", "unit.of.measure": "%", "result.value": 50.4}
{"compound.structure.string": "COc1cnc(O[C@@H]2C[C@@H](C(=O)N[C@]3(C(=O)NS(=O)(=O)C4CC4)C[C@H]3C3CC3)N(C(=O)[C@@H](NC(=O)O[C@H](C)C(F)(F)F)C(C)(C)C)C2)c2cc(Cl)ccc12", "measurement.name": "Activity", "unit.of.measure": "%", "result.value": 16}
{"compound.structure.string": "C=C[C@@H]1C[C@]1(NC(=O)[C@@H]1C[C@@H](Oc2ncc(OC)c3ccc(Cl)cc23)CN1C(=O)[C@@H](NC(=O)OC(C)(C)C)C(C)(C)C)C(=O)NS(=O)(=O)C1CC1", "measurement.name": "Activity", "unit.of.measure": "%", "result.value": 5}
{"compound.structure.string": "COc1cnc(O[C@@H]2C[C@@H](C(=O)N[C@]3(C(=O)NS(=O)(=O)C4CC4)C[C@H]3C3CC3)N(C(=O)[C@@H](NC(=O)O[C@H](C)C(F)(F)F)C3CCCC3)C2)c2cc(Cl)ccc12", "measurement.name": "Activity", "unit.of.measure": "%", "result.value": 0}
{"compound.structure.string": "COc1cnc(O[C@@H]2C[C@@H](C(=O)N[C@]3(C(=O)NS(=O)(=O)C4CC4)C[C@H]3C3CC3)N(C(=O)[C@@H](NC(=O)O[C@H](C)C(F)(F)F)C(C)(C)C)C2)c2cccc(Cl)c12", "measurement.name": "Activity", "unit.of.measure": "%", "result.value": 53}

Query: State the recorded Activity for this entry: COc1cnc(O[C@@H]2C[C@@H](C(=O)N[C@]3(C(=O)NS(=O)(=O)C4CC4)C[C@H]3C3CC3)N(C(=O)[C@@H](NC(=O)O[C@H](C)C(F)(F)F)C3CCCCC3)C2)c2cc(Cl)ccc12
Response: -3

Query: Next entry: C=C[C@@H]1C[C@]1(NC(=O)[C@@H]1C[C@@H](Oc2nccc3cc(OC)ccc23)CN1C(=O)[C@@H](NC(=O)OC(C)(C)C)C(C)(C)C)C(=O)NS(=O)(=O)C1CC1
Response: 290

Query: Could you do the same for CC[C@@H]1C[C@]1(NC(=O)[C@@H]1C[C@@H](Oc2ncc(OC)c3ccc(Cl)cc23)CN1C(=O)[C@@H](NC(=O)OC(C)(C)C)C(C)(C)C)C(=O)NS(=O)(=O)C1CC1 , please?
Response: 26
